target: GST-KIAA1634 PDZ domain 1 (Homo sapiens (Human)), Q5TCQ9; assay: G' assay; also: key of the grades not given here
Sequence (Q5TCQ9 401-502): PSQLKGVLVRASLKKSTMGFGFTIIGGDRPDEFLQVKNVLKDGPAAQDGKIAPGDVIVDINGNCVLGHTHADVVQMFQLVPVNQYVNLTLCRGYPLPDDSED
READOUT_TYPE: Classification (A450 class)

1) SSPDSSYQGKGFVMSRAMYV (modifications not checked) [Nectin 2] | 1
2) GGGGGSGGGGGSGIESVKI (modifications not checked) [GLUR2 (glutamate receptor 2-modified)] | 4
3) ESSGTQSPKRHSGSYLVTSV (modifications not checked) [APC-adenomatous polyposis coli protein] | 1
4) SFTSILTCHQRRTQRKETVA (modifications not checked) [GluR5-2 (rat)] | 5
5) ISGTPTSTMVHGMTSSSSVV (modifications not checked) [Clasp-2] | 1
6) QISPGGLEPPSEKHFRETEV (modifications not checked) [TAX] | 5
7) RNIEEVYVGGKQVVPFSSSV (modifications not checked) [Nedasin (s-form)] | 1
8) GGEDFKTTNPSKQFDKNAYV (modifications not checked) [claudin 10] | 1
9) VDPNSPAAKKKYVSYNNLVI (modifications not checked) [GLUR7 (metabotropic glutamate receptor)] | 1
10) ELLQFCRTPNPALKNGQYWV (modifications not checked) [CSPG4 (chondroitin sulfae proteoglycan 4, melanoma-associated)] | 5
11) TREDIYVNYPTFSRRPKTRV (modifications not checked) [DNAM-1] | 5
12) ALVLIAFCIIRRRPSAYQAL (modifications not checked) [CD68] | 2
13) ARHRVTSYTSSSVNVSSNL (modifications not checked) [IL-8RA] | 1
14) KDITSDSENSNFRNEIQSLV (modifications not checked) [CD95] | 1
15) PGQPPKVKSEFNSYSLTGYV (modifications not checked) [claudin 2] | 1
